Value source: ChEMBL document CHEMBL4359892

Tested on: Human immunodeficiency virus 1
test.description: Antiviral activity against HIV-1 3B infected in human MT4 cells assessed as reduction in virus-induced cytopathic effect incubated for 5 days by MTT assay
Assay type: functional, organism-based
conditions.used: Human immunodeficiency virus 1, 3B, MT4, 120 h
Measured EC50 values are reported for all entries that follow.
endpoint: EC50 (nM)

INSERT INTO assay_data (structure_as_smiles, endpoint, unit_abbrev, endpoint_result) VALUES
  ('Cc1cc(C)cc(S(=O)(=O)c2c(C(=O)N[C@@H]3CCN(S(C)(=O)=O)C3)[nH]c3ccc(Cl)cc23)c1', 'EC50', 'nM', 4.7),
  ('O=C1Nc2ccc(Cl)cc2[C@@](C#CC2CC2)(C(F)(F)F)O1', 'EC50', 'nM', 8.6),
  ('Cc1cc(C)cc(S(=O)(=O)c2c(C(=O)NS(=O)(=O)c3ccccc3)[nH]c3ccc(Cl)cc23)c1', 'EC50', 'nM', 1730),
  ('Cc1cc(C)cc(S(=O)(=O)c2c(C(=O)NS(=O)(=O)c3ccc(F)cc3)[nH]c3ccc(Cl)cc23)c1', 'EC50', 'nM', 2950),
  ('Cc1cc(C)cc(S(=O)(=O)c2c(C(=O)NS(=O)(=O)C3CC3)[nH]c3ccc(Cl)cc23)c1', 'EC50', 'nM', 2600),
  ('Cc1ccnc2c1NC(=O)c1cccnc1N2C1CC1', 'EC50', 'nM', 380),
  ('Cc1cc(C)cc(S(=O)(=O)c2c(C(=O)NC3CN(Cc4n[nH]c(=O)n4C)C3)[nH]c3ccc(Cl)cc23)c1', 'EC50', 'nM', 110),
  ('Cc1cc(C)cc(S(=O)(=O)c2c(C(=O)N[C@H]3CCNC3)[nH]c3ccc(Cl)cc23)c1', 'EC50', 'nM', 21),
  ('Cc1cc(C)cc(S(=O)(=O)c2c(C(=O)N[C@@H]3CCN(Cc4cccnc4)C3)[nH]c3ccc(Cl)cc23)c1', 'EC50', 'nM', 57);
